All figures here come from ChEMBL document CHEMBL3046595.

- Tested on: SMMC-7721
- RUN DESCRIPTION: Cytotoxicity against Homo sapiens (human) SMMC7721 cells at 1 x 10^-6 mol/L after 48 hr by MTT assay
- Format: functional
- REPORTED CONDITIONS: SMMC-7721, 48 h
PROPERTY NAME: inhibition at 1 µM

## Input Look up SMMC-7721 data: inhibition at 1 µM of CCOC(=O)[C@H](CCC(=O)OCC#CCOc1no[n+]([O-])c1S(=O)(=O)c1ccccc1)NC(=O)c1ccc(CCc2c[nH]c3[nH]c(N)nc(=O)c23)cc1 , then report it.
## Output 50%

## Input // fetch inhibition at 1 µM for CCOC(=O)[C@H](CCC(=O)OC(C)COc1no[n+]([O-])c1S(=O)(=O)c1ccccc1)NC(=O)c1ccc(CCc2c[nH]c3[nH]c(N)nc(=O)c23)cc1 (stereo partly drawn) ; system: SMMC-7721
## Output < 50%

## Input Recall the reported inhibition at 1 µM of CCOC(=O)[C@H](CCC(=O)OCCOCCOc1no[n+]([O-])c1S(=O)(=O)c1ccccc1)NC(=O)c1ccc(CCc2c[nH]c3[nH]c(N)nc(=O)c23)cc1 when tested on SMMC-7721.
## Output < 50%

* * *

Exercise: for every item that follows, state its recorded inhibition at 1 µM.
- Tested on: SMMC-7721
- RUN DESCRIPTION: Cytotoxicity against Homo sapiens (human) SMMC7721 cells at 1 x 10^-6 mol/L after 48 hr by MTT assay
- Format: functional
- REPORTED CONDITIONS: SMMC-7721, 48 h

## Input Given the compound CCOC(=O)[C@H](CCC(=O)OCCOc1no[n+]([O-])c1S(=O)(=O)c1ccccc1)NC(=O)c1ccc(CCc2c[nH]c3[nH]c(N)nc(=O)c23)cc1 , write its reported inhibition at 1 µM.
## Output < 50%

## Input Provide one value: measured inhibition at 1 µM of Nc1nc2[nH]cc(CCc3ccc(C(=O)N[C@@H](CCC(=O)O)C(=O)O)cc3)c2c(=O)[nH]1 [PEMETREXED DISODIUM]
## Output < 50%

## Input Determine from records and report inhibition at 1 µM for CCOC(=O)[C@H](CCC(=O)OCCCCCOc1no[n+]([O-])c1S(=O)(=O)c1ccccc1)NC(=O)c1ccc(CCc2c[nH]c3[nH]c(N)nc(=O)c23)cc1
## Output < 50%

## Input Supply recorded inhibition at 1 µM for CCOC(=O)[C@H](CCC(=O)OCCCOc1no[n+]([O-])c1S(=O)(=O)c1ccccc1)NC(=O)c1ccc(CCc2c[nH]c3[nH]c(N)nc(=O)c23)cc1 here.
## Output < 50%

## Input Check the records and state inhibition at 1 µM for CCOC(=O)[C@H](CCC(=O)OCCCCCCOc1no[n+]([O-])c1S(=O)(=O)c1ccccc1)NC(=O)c1ccc(CCc2c[nH]c3[nH]c(N)nc(=O)c23)cc1
## Output > 80%

## Input Please report the measured inhibition at 1 µM for CCOC(=O)[C@H](CCC(=O)OCCCCOc1no[n+]([O-])c1S(=O)(=O)c1ccccc1)NC(=O)c1ccc(CCc2c[nH]c3[nH]c(N)nc(=O)c23)cc1
## Output > 80%

* * *

- System: HL-60
- RUN DESCRIPTION: Cytotoxicity against Homo sapiens (human) HL60 cells at 0.1 x 10^-6 mol/L after 48 hr by MTT assay
- Type: functional
- REPORTED CONDITIONS: HL-60, 48 h
Consider the following compounds; for each one, report its inhibition at 0.1 µM.

## Input Give a short answer stating reported inhibition at 0.1 µM for CCOC(=O)[C@H](CCC(=O)OCC#CCOc1no[n+]([O-])c1S(=O)(=O)c1ccccc1)NC(=O)c1ccc(CCc2c[nH]c3[nH]c(N)nc(=O)c23)cc1 .
## Output < 50%

## Input Tell me its inhibition at 0.1 µM given CCOC(=O)[C@H](CCC(=O)OCCOCCOc1no[n+]([O-])c1S(=O)(=O)c1ccccc1)NC(=O)c1ccc(CCc2c[nH]c3[nH]c(N)nc(=O)c23)cc1 as the entry.
## Output < 50%

## Input Consider the compound CCOC(=O)[C@H](CCC(=O)OCCOc1no[n+]([O-])c1S(=O)(=O)c1ccccc1)NC(=O)c1ccc(CCc2c[nH]c3[nH]c(N)nc(=O)c23)cc1 and give its recorded inhibition at 0.1 µM.
## Output < 50%

## Input Determine its reported inhibition at 0.1 µM: CCOC(=O)[C@H](CCC(=O)OC(C)COc1no[n+]([O-])c1S(=O)(=O)c1ccccc1)NC(=O)c1ccc(CCc2c[nH]c3[nH]c(N)nc(=O)c23)cc1 (some centres undefined)
## Output > 80%

## Input Please list inhibition at 0.1 µM recorded for the compound CCOC(=O)[C@H](CCC(=O)OCCCOc1no[n+]([O-])c1S(=O)(=O)c1ccccc1)NC(=O)c1ccc(CCc2c[nH]c3[nH]c(N)nc(=O)c23)cc1
## Output < 50%

## Input Please look at this compound and report its inhibition at 0.1 µM: Nc1nc2[nH]cc(CCc3ccc(C(=O)N[C@@H](CCC(=O)O)C(=O)O)cc3)c2c(=O)[nH]1 [PEMETREXED DISODIUM]
## Output 50%

## Input Give the reported inhibition at 0.1 µM for this compound. CCOC(=O)[C@H](CCC(=O)OCCCCOc1no[n+]([O-])c1S(=O)(=O)c1ccccc1)NC(=O)c1ccc(CCc2c[nH]c3[nH]c(N)nc(=O)c23)cc1
## Output 50%

## Input Give a short answer stating reported inhibition at 0.1 µM for CCOC(=O)[C@H](CCC(=O)OCCCCCCOc1no[n+]([O-])c1S(=O)(=O)c1ccccc1)NC(=O)c1ccc(CCc2c[nH]c3[nH]c(N)nc(=O)c23)cc1 .
## Output < 50%

## Input Given CCOC(=O)[C@H](CCC(=O)OCCCCCOc1no[n+]([O-])c1S(=O)(=O)c1ccccc1)NC(=O)c1ccc(CCc2c[nH]c3[nH]c(N)nc(=O)c23)cc1 , respond with its inhibition at 0.1 µM.
## Output > 80%
